tested on: AsPC-1 cells; assay: AsPC-1 cell proliferation assay (CellTiter Glo); format: cell-based; conditions: Homo sapiens, ASPC1, 144 h, 6 days
Catalogue of compounds with associated IC50

>  <compound>
CCn1nccc1-c1ccc([C@H](CO)NC(=O)[C@@H]2C[C@@H](O)CN2C(=O)[C@H](C(C)C)n2cc(-c3ccc(COc4c(-c5c(C)c(F)cc6[nH]ncc56)c(C5CC5)cc5c(N6C[C@@H]7C[C@H]6CN7)nc(OC6CCC(OC)CC6)nc45)cc3)nn2)cc1 (some centres unmarked)

>  <IC50>
< 10 nM

$$$$
>  <compound>
CCn1nccc1-c1ccc([C@H](CO)NC(=O)[C@@H]2C[C@@H](O)CN2C(=O)[C@H](C(C)C)n2cc(-c3ccc(COc4c(-c5c(C)c(F)cc6[nH]ncc56)c(C5CC5)cc5c(N6CC7CCC(C6)N7)nc(OC[C@H](C)OC)nc45)cc3)nn2)cc1 (single isomer, unassigned) [Example 13A]

>  <IC50>
10 to 100 nM

$$$$
>  <compound>
CCn1nccc1-c1ccc([C@@H](NC(=O)[C@@H]2C[C@@H](O)CN2C(=O)[C@H](C(C)C)n2cc(-c3ccc(COc4c(-c5c(C)c(F)cc6[nH]ncc56)c(C5CC5)cc5c(N6C[C@@H]7C[C@H]6CN7)nc(OC[C@H](C)OC)nc45)cc3)nn2)[C@@H](C)O)cc1

>  <IC50>
< 10 nM

$$$$
>  <compound>
Cc1ncsc1-c1ccc([C@@H](NC(=O)[C@@H]2C[C@@H](O)CN2C(=O)[C@H](C(C)C)n2cc(-c3ccc(COc4c(-c5c(C)c(F)cc6[nH]ncc56)c(C5CC5)cc5c(N6C[C@@H]7C[C@H]6CN7)nc(OC6CC7COCC7C6)nc45)cc3)nn2)[C@H](C)O)cc1 (some centres unmarked)

>  <IC50>
< 10 nM

$$$$

Proceed to the following item.
Q: Please tell me: IC50 of `CO[C@@H](C)COc1nc(N2C[C@@H]3C[C@H]2CN3)c2cc(C3CC3)c(-c3c(C)c(F)cc4[nH]ncc34)c(OCc3ccc(-c4cn([C@H](C(=O)N5C[C@H](O)C[C@H]5C(=O)N[C@H](C#Cc5cccc6scnc56)CO)C(C)C)nn4)cc3)c2n1` , system AsPC-1 cells?
Result: 10 to 100 nM
